experiment: NCI Yeast Anticancer Drug Screen. Data for the rad18 strain (AID 177); conditions: S. cerevisiae rad18 mutant growth inhibition; at 11.0 µM
Compounds without any hit were thinned out: in the full panel of roughly 79,000, 15% have a hit. Calls of active or inactive are those of the source. Rule as the data show it: active = growth inhibition above about 70%; inactive = the rest.
Outcome codes: active, inactive

compound	class label
Nc1nc(F)nc2c1ncn2C1OC(COP(=O)(O)O)C(O)C1O (stereo unspecified)	inactive
COC(=O)/C=C1/OC(c2ccc(Br)cc2)=C(Br)C1=O	inactive
COc1ccc(/C=C(\NC(=O)c2ccccc2)C(=O)NN(C)c2ccnc3cc(Cl)ccc23)cc1OC	inactive
O=C1c2ccccc2CCC1(Br)Br	active
CC(C)(C)[OH+][O-].[O-]c1ccc(Cl)cc1C=Nc1ccc(Cl)cc1[O-].[O]=[V]	inactive
Cc1nc2c(ncn2CCO)c(=O)[nH]1	inactive
CCOP1(=O)C=C(Sc2ccc([N+](=O)[O-])cc2[N+](=O)[O-])C(C)(C)O1 (stereo unspecified)	inactive
CN(C)CCN1C(=O)c2cccc3cc([N+](=O)[O-])cc(c23)C1=O	inactive
Oc1ccccc1N=Cc1ccc(Cl)cc1	inactive
N#C/C(=C1C=C/C(=N/O)c2ccccc2/1)c1ccccc1	inactive
CCCCCCCCCCCc1nc(N)n[nH]1	inactive

* * *

Experiment: NCI Yeast Anticancer Drug Screen. Data for the mgt1 strain (AID 153)
Conditions: S. cerevisiae mgt1 mutant growth inhibition; at 100.0 µM
Description: Growth inhibition of yeast strains with defined genetic alterations is measured as a screen for potential anti-cancer activity. Selected strains with alterations in DNA damage repair or cell cycle control were exposed to compounds and growth inhibition was measured relative to vehicle treated controls. The strain used in this assay is mgt1
The panel holds about 79,000 compounds, 15% with a hit somewhere; the sample as a whole holds those more often. The source made the active and inactive calls. No stated cut-off is given here; in the data, active means growth inhibition above about 70%; inactive means the rest. Residues, ends and D or L forms follow the SMILES beside them. *: point of attachment. CH2Cl = ClC*
Outcomes: YES (active), NO (inactive)

molecule	class label
CC[C@@]1(OC(=O)CN(C)C)C(=O)OCc2c1cc1n(c2=O)Cc2cc3c(N)cccc3nc2-1	NO
CCOC(=O)[C@]1(Br)CC[C@@]1(Br)C(=O)OCC	YES
Cc1cc(O)c2c(c1O)C(=O)C13C(=C2O)C(=O)C2C(O)C1C1C(O)C3C(=O)C3=C(O)c4c(O)cc(C)c(O)c4C(=O)C321 (stereo not given)	YES
Cc1cc(C)c(N2C(=O)CC(Sc3ccccc3N)C2=O)c(C)c1 (stereo not given)	NO
S=C1SCN(CCc2ccccc2)CN1CCc1ccccc1	NO
CC(=O)NC(CC(C)C)C(=O)NC(Cc1ccccc1)C(=O)CCl (stereo not drawn) (Ac-Leu-Phe-CH2Cl; configuration not given here)	YES
Cc1ccc2c(ccc(/C=C/c3ccc(O)c4ncccc34)[n+]2C)c1	YES
O=NN(CCCl)C(=O)NC1CCCCC1	NO
Clc1c(Cl)c(Cl)c2n[nH]nc2c1Cl	YES
COC(=O)/C=C1/OC(c2ccc(Br)cc2)=C(Br)C1=O	YES

* * *

experiment: NCI Yeast Anticancer Drug Screen. Data for the rad52 strain (AID 147); conditions: S. cerevisiae rad52 mutant growth inhibition; at 11.0 µM
This is part of a sample that, as a whole, favours compounds with a hit. Of some 79,000 tested, about 15% had one in any assay. The source made the active and inactive calls. Rule as the data show it: active = growth inhibition above about 70%; inactive = the rest.
Labels: active, inactive

compound	class label
CC(=O)N1C(=O)/C(=C\C(=O)c2ccc(Cl)cc2)c2ccccc21	inactive
CN(C)Cc1cccc(CN(C)C)[c]1[Sn]([Br])([c]1ccccc1)[c]1ccccc1	inactive
Cc1cc(O)c2c(c1O)C(=O)C13C(=C2O)C(=O)C2C(O)C1C1C(O)C3C(=O)C3=C(O)c4c(O)cc(C)c(O)c4C(=O)C321 (stereo unspecified)	inactive
CC(C)c1cccc(O)c(=O)c1	inactive
NNC(=S)Nc1cccc(Cl)c1	inactive
[Pt].c1ccc(P(CCP(c2ccccc2)c2ccccc2)CCP(c2ccccc2)c2ccccc2)cc1	inactive
CCC(=O)N(c1ccccc1)C(C)CN1CCC(O)(c2cccc(C(F)(F)F)c2)CC1 (stereo unspecified)	inactive
CCCCC(CC)C(=O)Oc1ccc(C(=O)c2ccccc2)c(O)c1 (stereo unspecified)	inactive
Oc1ccccc1N=Cc1ccc(Cl)cc1	inactive
O=[N+]([O-])c1cccc2nc3ccccc3c(NCCc3cccc[n+]3[O-])c12	active
CSc1s[s+]c(SC)c1-c1ccccc1	inactive
